The measurements presented in this section are drawn from the supplement of paper PMC11208160.

protocol_text: recombinant barcode read abundance after kanamycin selection (control-corrected) (log10(CPM+1)); higher = more efficient recombination; sequences stand for … in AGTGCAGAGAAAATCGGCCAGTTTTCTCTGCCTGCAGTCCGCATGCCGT…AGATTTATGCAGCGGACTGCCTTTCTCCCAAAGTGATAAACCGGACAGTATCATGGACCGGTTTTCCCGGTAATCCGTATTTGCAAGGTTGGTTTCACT; site = the 11-nt target
property_measured: recombinant barcode read abundance (log10)
Enter the number alone.

What value of recombinant barcode read abundance (log10) has been reported for the following sequence? GTGAACCCTTGGGTTCTAACCTGTTGCAA (site GTGAACCCTTT)
1.66

Attention now shifts to the item below.
Field request: recombinant barcode read abundance (log10) | item: ACAGCTACTTGGGTTCTAACCTGTTGCCT (site ACAGCTTCTAG)
0.33

====

protocol_text: recombinant UMI read abundance after kanamycin selection (control-corrected) (log10(CPM+1)); higher = more efficient recombination; extreme values may be limits of the assay; sequences stand for … in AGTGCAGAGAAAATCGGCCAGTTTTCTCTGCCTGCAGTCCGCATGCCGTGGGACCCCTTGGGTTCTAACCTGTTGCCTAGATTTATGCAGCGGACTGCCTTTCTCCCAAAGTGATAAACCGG…AGGTTGGTTTCACT; site = the 11-nt donor
Each entry below carries its recorded recombinant UMI read abundance (log10).
Please respond with just the number, no unit label.

Which value of recombinant UMI read abundance (log10) has been reported for CACTTGTCATGGACCGGTTTTCCCGGTAATCCGTATTTGGA (site CACTTGTCTTC) in the records?
1.84

Need recombinant UMI read abundance (log10) of TTATAGGCATGGACCGGTTTTCCCGGTAATCCGTATTTGGA (site TTATAGGCTTC) , thanks.
0.419

Dear colleague, I am looking for the recorded recombinant UMI read abundance (log10) of the following sequence: GTTATAACATGGACCGGTTTTCCCGGTAATCCGTATTTGGC (site GTTAGAACTGC)
0

Entry under review: ACTACTGCATGGACCGGTTTTCCCGGTAATCCGTATTTGCC (site ACTACTGCTGG) . Reported recombinant UMI read abundance (log10)?
1.54

// lookup recombinant UMI read abundance (log10) for CCTTTCTCATGGACCGGTTTTCCCGGTAATCCGTATTTGGG (site CCTTTCTCTCC)
0

Return reported recombinant UMI read abundance (log10); argument: TGCTAGGCATGGACCGGTTTTCCCGGTAATCCGTATTTGAT (site TGCTAGGCTAT)
0.326

From here, focus on the item given below.
Suppose we examine the sequence CGGGAGTCATGGACCGGTTTTCCCGGTAATCCGTATTTGTC (site CGGGAGTCTGC) ; what recombinant UMI read abundance (log10) value has been reported?
1.37

====

protocol_text: recombinant barcode read abundance after kanamycin selection (control-corrected) (log10(CPM+1)); higher = more efficient recombination; sequences stand for … in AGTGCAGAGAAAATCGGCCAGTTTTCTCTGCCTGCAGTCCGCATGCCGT…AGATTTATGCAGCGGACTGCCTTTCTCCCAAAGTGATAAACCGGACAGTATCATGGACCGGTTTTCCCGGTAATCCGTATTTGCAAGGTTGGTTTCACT; site = the 11-nt target
property_measured: recombinant barcode read abundance (log10)
Respond numerically, and do not add a unit to the figure.

Completed entries (count: 3):
Dear colleague, I am looking for the recorded recombinant barcode read abundance (log10) of the following sequence: GAGTTAACTTGGGTTCTAACCTGTTGCCG (site GTGTGAACTCG)
0.0546

Which measured recombinant barcode read abundance (log10) value corresponds to CCGATCCCTTGGGTTCTAACCTGTTGCCT (site CTGATCCCTAG) ?
0.107

// lookup recombinant barcode read abundance (log10) for AGCGGTCCTTGGGTTCTAACCTGTTGCCT (site AGCGGGCCTAG)
0.409

Continuing:
May I ask what recombinant barcode read abundance (log10) has been recorded for TGGCTCCCTTGGGTTCTAACCTGTTGCCG (site TGGCTCCCTCG) ?
1.35

Which recombinant barcode read abundance (log10) is listed for AATAGAGCTTGGGTTCTAACCTGTTGCAG (site AAGTGAGCTCT) ?
0.0557
